Measured Pre-emergence action against DIGSA in %, listed per entry for reference.
- System: Digitaria sanguinalis (DIGSA)
- protocolDescription: Pre-emergence herbicidal action against DIGSA
- Assay type: in vivo
- testSettings: dosage 320 g/ha
Numeric answer only, unit % assumed.

Check out these entries, answers already filled in.
COC(=O)[C@@H](C)Oc1nn(-c2ccccn2)c(-c2ccnc(F)c2)c1Cl	100
COC(=O)COc1nn(-c2ncccc2F)c(-c2ccc(F)nc2)c1Br	100
CC(C)C(Oc1nn(-c2ccccn2)c(-c2ccc(F)nc2)c1Br)C(=O)O (centres unmarked)	90
COC(=O)CCOC(=O)COc1nn(-c2ccccn2)c(-c2ccc(Cl)nc2)c1Cl	80
CCOC(=O)CSc1nn(-c2ccccn2)c(-c2cncc(F)c2)c1Br	100

Suppose we examine the compound COC(=O)C(C)COC(=O)COc1nn(-c2ccccn2)c(-c2cncc(F)c2)c1Cl (centres unmarked) ; what Pre-emergence action against DIGSA in % value has been reported? 100

Suppose we examine the compound C[C@@H](Oc1nn(-c2nc(F)ccc2F)c(-c2cncc(F)c2)c1Cl)C(=O)O ; what Pre-emergence action against DIGSA in % value has been reported? 100

Suppose we examine the compound C=C(COC(=O)[C@@H](C)Oc1nn(-c2ccccn2)c(-c2ccc(F)nc2)c1Cl)C(=O)OC ; what Pre-emergence action against DIGSA in % value has been reported? 100

----------
- Tested on: Triticum aestivum (TRZAS)
- Format: in vivo
- testSettings: crop plant compatibility, 80 g/ha, effect vs untreated controls
Measured Post-emergence action against TRZAS in %, listed per entry for reference.
Numeric answer only, unit % assumed.

Cc1ncccc1-n1nc(OCC(=O)OCc2ccccn2)c(Br)c1-c1cncc(F)c1	20
O=C(O)C1CCN(C(=O)COc2nn(-c3ccccn3)c(-c3cncc(F)c3)c2Br)C1 (racemic)	0
COC(=O)CCOC(=O)COc1nn(-c2cccc(C)n2)c(-c2ccc(F)nc2)c1Br	0
C[C@@H](Oc1nn(-c2ncccc2F)c(-c2ccc(F)nc2)c1Br)C(=O)O	10

Hello, I am looking for reported Post-emergence action against TRZAS in % with Triticum aestivum (TRZAS) for COC(=O)CNC(=O)COc1nn(-c2ncccc2C(F)(F)F)c(-c2cncc(F)c2)c1Br . Could you help? 10

Hello, I am looking for reported Post-emergence action against TRZAS in % with Triticum aestivum (TRZAS) for COC(=O)CN(C)C(=O)COc1nn(-c2ccnc(Cl)c2)c(-c2ccc(F)nc2)c1Br . Could you help? 0

Hello, I am looking for reported Post-emergence action against TRZAS in % with Triticum aestivum (TRZAS) for COC(=O)CCOC(=O)COc1nn(-c2ncccc2C(F)(F)F)c(-c2cncc(F)c2)c1Br . Could you help? 20

Hello, I am looking for reported Post-emergence action against TRZAS in % with Triticum aestivum (TRZAS) for COC(=O)COc1nn(-c2cccnc2C)c(-c2cncc(F)c2)c1Cl . Could you help? 20

----------
- Test system: Verconica persica (VERPE)
- protocolDescription: Post-emergence herbicidal action against VERPE
- Type: in vivo
- testSettings: 320 g/ha, VERPE
Measured Post-emergence action against VERPE in %, listed per entry for reference.
Numeric answer only, unit % assumed.

Check out these entries, answers already filled in.
COC(=O)CCOC(=O)COc1nn(-c2ncccc2C(F)(F)F)c(-c2cncc(F)c2)c1Br [Example I-160]	90
COC(=O)COc1nn(-c2nc(F)ccc2F)c(-c2ccc(F)nc2)c1C1CC1 [Example I-300]	80
COC(=O)C(C)COC(=O)C(C)Oc1nn(-c2ccccn2)c(-c2ccc(F)nc2)c1Br (stereo not drawn) [Example I-285]	80
O=C(O)COc1nn(-c2nc(F)ccc2F)c(-c2cncc(F)c2)c1Br [Example I-207]	90
O=C(O)COc1nn(-c2ccccn2)c(-c2ccc(Cl)nc2)c1Cl [Example I-236]	80

Consider now this further compound.
Suppose we examine the compound COC(=O)C(C)OC(=O)C(C)Oc1nn(-c2ccccn2)c(-c2ccc(F)nc2)c1Cl (stereo not drawn) [Example I-299] ; what Post-emergence action against VERPE in % value has been reported? 80
